This collection of values is drawn from patent US20190002935A1.

- Tested on: E. coli K-12 MG1655
- METHOD: Growth Profiler growth of K-12 MG1655 in a range of concentrations of other polyamines and amine-containing compounds
- CONDITION SET: K-12 MG1655, 10 g/L of the compound, Growth Profiler
- From the text: For data obtained with the Growth Profiler, improved image analysis was additionally implemented to obtain the updated growth parameters. […] In the Tables below, for values labeled in columns with “(2)”, a new algorithm was implemented that automatically detected the pixel integration region in each well in each image by locating the darkest pixels in each well. […]
RECORDED ENDPOINT: tlag (lag time) (h)
Report the figure in h without appending any unit label.

These recorded examples may help you get a feel for the data.
input: Dear colleague, I am looking for the recorded tlag (lag time) of the following molecule: N=C(N)NCCCCN [Agmatine, 1-amino-4-guanidinobutane]
output: 5.3

input: Quick one: tlag (lag time) for NCCN [ethylenediamine, 1,2-diaminoethane] ?
output: 8.5

input: Report tlag (lag time) for NCCC[C@H](N)C(=O)O [ornithine] please.
output: 17.1

Others:
input: Quick check: tlag (lag time) of C[N+](C)(C)CC(O)CC(=O)[O-] (stereo not shown) [carnitine] ?
output: 7.5
